# system-under-test: Pyruvate kinase (Leishmania mexicana)
# procedure-text: Confirmation Assay for Inhibitors of Leishmania Mexicana Pyruvate Kinase (LmPK): for Probe SAR
# condition-description: purified LmPK, ATP generation, Kinase-Glo luminescence; series mostly up to 57.5 µM
Inconclusive results are not listed. The source made the active and inactive calls. The call rests on the fitted dose curve; in most records, active means well fitted inhibition curve with a large enough effect; inconclusive means small, poorly fitted or top-dose-only effect, or effect the other way; inactive means flat fitted curve, though single readings scatter.
Please answer using one outcome listed in 1.0 = active, 0.0 = inactive

Prompt: Which outcome was assigned to Cc1ccc(NS(=O)(=O)c2cc3c(cc2Cl)CCC(=O)N3)cc1C in this test?
Completion: 0.0

Prompt: Give the logged outcome of this assay for the following molecule: CC(=O)Nc1ccc(OC2=NS(=O)(=O)c3ccccc32)cc1
Completion: 1.0

Prompt: I'd appreciate the recorded outcome for COc1ccc(Nc2c(-c3ccc(C)o3)nc3ccccn23)cc1 from this test.
Completion: 0.0

Prompt: Identify the outcome logged in this assay for the molecule shown: O=C1NS(=O)(=O)c2cc(Br)ccc21
Completion: 0.0

Prompt: Recorded call for O=C1c2ccccc2C(=O)N1c1cccc(O)c1 ?
Completion: 0.0

Prompt: Recorded call for Cc1ccc(C)c(SC2=NS(=O)(=O)c3ccccc32)c1 ?
Completion: 1.0

Prompt: Just curious, what result did O=C1c2ccccc2C(=O)N1c1cccc2ncccc12 get here?
Completion: 0.0

Prompt: Dear colleague, could you share the recorded outcome for Cc1ccc(C)c(SC2=N[S+](=O)([O-])c3cc(C(=O)Nc4ccc5ncccc5c4)ccc32)c1 when you have a moment?
Completion: 0.0

Prompt: Lab log entry: COc1cccc(OC2=NS(=O)(=O)c3ccccc32)c1 — outcome as called in the assay?
Completion: 0.0

Prompt: What is the recorded call for this molecule in the test? CC(C)c1ccccc1SC1=NS(=O)(=O)c2ccccc21
Completion: 1.0

Prompt: What call does the record list for Cc1cccc(NS(=O)(=O)c2ccc3c(c2)CCC(=O)N3)c1 ?
Completion: 0.0

Prompt: How was Cc1ccc(Nc2c(-c3ccc(C)s3)nc3cccc(C)n23)cc1 classified in this test?
Completion: 0.0

Prompt: Query: recorded result category for COc1ccc(OC2=NS(=O)(=O)c3ccccc32)cc1 in this test
Completion: 1.0

Prompt: Test call, this molecule: Nc1ccc2c(c1)S(=O)(=O)NC2=O
Completion: 0.0

Prompt: Given Cc1ccc(Nc2c(-c3ccc(C)o3)nc3ccccn23)cc1 , state the outcome it received in this test.
Completion: 0.0

Prompt: Can you look up the reported call for O=S1(=O)N=C(Sc2cc(C(F)(F)F)cc(C(F)(F)F)c2)c2ccccc21 for me?
Completion: 1.0

Prompt: Dear all, I need the recorded test outcome for Cc1ccc2nc(-c3ccc(C)o3)c(NC3CCCC3)n2c1 , thank you.
Completion: 0.0

These measurements were taken from PubChem BioAssay AID2561.
